protocol.description: Solubility of the compound in phosphate buffer at pH 7.5 after 20 hrs by UV spectrophotometry
Format: physicochemical
I'd appreciate it if you could supply solubility at 20 h values for the items below.
Give bare numbers, in µg/mL.

- mol: "COc1ccc2cc3[n+](cc2c1OCCN(CCn1c([N+](=O)[O-])cnc1C)Cc1ccc(F)cc1F)CCc1cc2c(cc1-3)OCO2.[Cl-]"
  solubility at 20 h [µg/mL]: 60.6
- mol: "COc1ccc2cc3[n+](cc2c1OCCN(CCn1cncc1[N+](=O)[O-])Cc1ccc(Cl)c(Cl)c1)CCc1cc2c(cc1-3)OCO2.[Cl-]"
  solubility at 20 h [µg/mL]: 80.8
- mol: "COc1ccc2cc3[n+](cc2c1OCCN(CCn1cnc([N+](=O)[O-])c1)Cc1cccc(Cl)c1)CCc1cc2c(cc1-3)OCO2.[Cl-]"
  solubility at 20 h [µg/mL]: 50.8

Okay, here is my list. What is solubility at 20 h for each of these?
1. COc1ccc2cc3[n+](cc2c1OCCN(CCn1cnc([N+](=O)[O-])c1)Cc1ccc(F)cc1F)CCc1cc2c(cc1-3)OCO2.[Cl-]
2. COc1ccc2cc3[n+](cc2c1OCCN(CCn1cnc([N+](=O)[O-])c1)Cc1ccc(Cl)c(Cl)c1)CCc1cc2c(cc1-3)OCO2.[Cl-]
3. COc1ccc2cc3[n+](cc2c1OCCN(CCn1cnc([N+](=O)[O-])c1)Cc1ccc(Cl)cc1)CCc1cc2c(cc1-3)OCO2.[Cl-]
4. COc1ccc2cc3[n+](cc2c1OCCN(CCn1cnc([N+](=O)[O-])c1)Cc1ccccc1Cl)CCc1cc2c(cc1-3)OCO2.[Cl-]

Result:
1. 94
2. 88.5
3. 64.8
4. 95.1

====

Tested on: Escherichia coli
protocol.description: Antibacterial activity against Escherichia coli DH52 after 24 hrs by twofold broth dilution method
Type: functional
experimental.context: DH52, 24 h
Please provide measured MIC for the entries that follow.
One number for each entry, in µg/mL.

// below: answered compounds
- compound: "O=[N+]([O-])c1cncn1CCN(CCBr)Cc1ccccc1Cl"
  MIC / µg/mL: 8
- compound: "O=[N+]([O-])c1cn(CCN(CCBr)Cc2ccccc2Cl)cn1"
  MIC / µg/mL: 32
- compound: "COc1ccc2cc3[n+](cc2c1OCCN(CCn1cncc1[N+](=O)[O-])Cc1ccc(Cl)cc1)CCc1cc2c(cc1-3)OCO2.[Cl-]"
  MIC / µg/mL: 32
- compound: "CCn1cc(C(=O)O)c(=O)c2cc(F)c(N3CCNCC3)cc21 [NORFLOXACIN]"
  MIC / µg/mL: 16

Please give MIC for each item listed below.
1. COc1ccc2cc3[n+](cc2c1OCCN(CCn1cnc([N+](=O)[O-])c1)Cc1ccc(F)cc1F)CCc1cc2c(cc1-3)OCO2.[Cl-]
2. O=[N+]([O-])c1cn(CCN(CCBr)Cc2ccc(Cl)cc2)cn1
3. COc1ccc2cc3[n+](cc2c1OCCN(CCn1cncc1[N+](=O)[O-])Cc1ccccc1Cl)CCc1cc2c(cc1-3)OCO2.[Cl-]
4. COc1ccc2cc3[n+](cc2c1OCCN(CCn1cncc1[N+](=O)[O-])Cc1ccc(F)cc1F)CCc1cc2c(cc1-3)OCO2.[Cl-]

Result:
16
128
4
8

====

Tested on: Micrococcus luteus
protocol.description: Antibacterial activity against Micrococcus luteus ATCC 4698 after 24 hrs by twofold broth dilution method
Format: functional
experimental.context: ATCC 4698, 24 h
quantity.name: MIC (µg/mL)
One number for each entry, in µg/mL.

- mol: "O=[N+]([O-])c1cncn1CCN(CCBr)Cc1cccc(Cl)c1"
  target.under.test: "Micrococcus luteus"
  quantity.name: "MIC"
  assay.result: 64
- mol: "COc1ccc2cc3[n+](cc2c1OCCN(CCn1cnc([N+](=O)[O-])c1)Cc1ccccc1Cl)CCc1cc2c(cc1-3)OCO2.[Cl-]"
  target.under.test: "Micrococcus luteus"
  quantity.name: "MIC"
  assay.result: 16
- mol: "O=[N+]([O-])c1cn(CCN(CCBr)Cc2ccccc2Cl)cn1"
  target.under.test: "Micrococcus luteus"
  quantity.name: "MIC"
  assay.result: 64

Please find the next compound below.
Q: Dear colleague, I am looking for the recorded MIC of the following compound: COc1ccc2cc3[n+](cc2c1OCCN(CCn1cnc([N+](=O)[O-])c1)Cc1ccc(Cl)c(Cl)c1)CCc1cc2c(cc1-3)OCO2.[Cl-]
Result: 16

====

I'd appreciate it if you could supply MIC values for the items below.
Tested on: Micrococcus luteus
protocol.description: Antibacterial activity against Micrococcus luteus ATCC 4698 after 24 hrs by twofold broth dilution method
Type: functional
experimental.context: ATCC 4698, 24 h
Give bare numbers, in µg/mL.

Examples with their reported MIC follow.
- mol: "COc1ccc2cc3[n+](cc2c1OCCN(CCn1cncc1[N+](=O)[O-])Cc1ccc(Cl)c(Cl)c1)CCc1cc2c(cc1-3)OCO2.[Cl-]"
  endpoint.unit: "µg/mL"
  assay.result: 32
- mol: "COc1ccc2cc3[n+](cc2c1OCCN(CCn1cnc([N+](=O)[O-])c1)Cc1ccc(Cl)cc1)CCc1cc2c(cc1-3)OCO2.[Cl-]"
  endpoint.unit: "µg/mL"
  assay.result: 32
- mol: "O=[N+]([O-])c1cncn1CCN(CCBr)Cc1ccc(F)cc1F"
  endpoint.unit: "µg/mL"
  assay.result: 16

// batch mode: one MIC value per listed entry
1. COc1ccc2cc3[n+](cc2c1OCCN(CCn1cncc1[N+](=O)[O-])Cc1ccccc1Cl)CCc1cc2c(cc1-3)OCO2.[Cl-]
2. COc1ccc2cc3[n+](cc2c1OCCN(CCn1c([N+](=O)[O-])cnc1C)Cc1ccc(F)cc1F)CCc1cc2c(cc1-3)OCO2.[Cl-]
3. O=[N+]([O-])c1cn(CCN(CCBr)Cc2ccc(F)cc2F)cn1

Result:
32
128
16

====

protocol.description: Octanol-water partition coefficient, log P of the compound after 24 hrs by UV-Vis spectrophotometry
Assay type: physicochemical
Answer each item with its documented logP at 24 h.

- mol: "COc1ccc2cc3[n+](cc2c1OCCN(CCn1c([N+](=O)[O-])cnc1C)Cc1ccc(F)cc1F)CCc1cc2c(cc1-3)OCO2.[Cl-]"
  assay.result: -0.34
- mol: "COc1ccc2cc3[n+](cc2c1OCCN(CCn1cnc([N+](=O)[O-])c1)Cc1ccc(Cl)cc1)CCc1cc2c(cc1-3)OCO2.[Cl-]"
  assay.result: 0.48
- mol: "COc1ccc2cc3[n+](cc2c1OCCN(CCn1cnc([N+](=O)[O-])c1)Cc1ccc(F)cc1F)CCc1cc2c(cc1-3)OCO2.[Cl-]"
  assay.result: 0.5

With those in mind, consider the next compound.
Q: What does the data say about its logP at 24 h? Entry: COc1ccc2cc3[n+](cc2c1OCCN(CCn1cncc1[N+](=O)[O-])Cc1ccc(Cl)cc1)CCc1cc2c(cc1-3)OCO2.[Cl-]
Result: 0.53

====

protocol.description: Stability of the compound at pH 6.5 to 8.5 after 30 mins by UV spectrophotometry
Type: physicochemical
experimental.context: buffer, pH 6.5, 0.5 h
quantity.name: Stability

- mol: "COc1ccc2cc3[n+](cc2c1OCCN(CCn1cnc([N+](=O)[O-])c1)Cc1ccc(Cl)c(Cl)c1)CCc1cc2c(cc1-3)OCO2.[Cl-]"
  assay.result: "Stable"
- mol: "COc1ccc2cc3[n+](cc2c1OCCN(CCn1cncc1[N+](=O)[O-])Cc1ccc(Cl)c(Cl)c1)CCc1cc2c(cc1-3)OCO2.[Cl-]"
  assay.result: "Stable"
- mol: "COc1ccc2cc3[n+](cc2c1OCCN(CCn1cnc([N+](=O)[O-])c1)Cc1ccccc1Cl)CCc1cc2c(cc1-3)OCO2.[Cl-]"
  assay.result: "Stable"
- mol: "COc1ccc2cc3[n+](cc2c1OCCN(CCn1cnc([N+](=O)[O-])c1)Cc1ccc(F)cc1F)CCc1cc2c(cc1-3)OCO2.[Cl-]"
  assay.result: "Stable"
- mol: "COc1ccc2cc3[n+](cc2c1OCCN(CCn1c([N+](=O)[O-])cnc1C)Cc1ccc(F)cc1F)CCc1cc2c(cc1-3)OCO2.[Cl-]"
  assay.result: "Stable"
- mol: "COc1ccc2cc3[n+](cc2c1OCCN(CCn1cnc([N+](=O)[O-])c1)Cc1ccc(Cl)cc1)CCc1cc2c(cc1-3)OCO2.[Cl-]"
  assay.result: "Stable"

For each of the items listed, what is its Stability?
1. COc1ccc2cc3[n+](cc2c1OCCN(CCn1cncc1[N+](=O)[O-])Cc1ccc(Cl)cc1)CCc1cc2c(cc1-3)OCO2.[Cl-]
2. COc1ccc2cc3[n+](cc2c1OCCN(CCn1cnc([N+](=O)[O-])c1)Cc1cccc(Cl)c1)CCc1cc2c(cc1-3)OCO2.[Cl-]
3. COc1ccc2cc3[n+](cc2c1OCCN(CCn1cncc1[N+](=O)[O-])Cc1ccccc1Cl)CCc1cc2c(cc1-3)OCO2.[Cl-]
4. COc1ccc2cc3[n+](cc2c1OCCN(CCn1cncc1[N+](=O)[O-])Cc1ccc(F)cc1F)CCc1cc2c(cc1-3)OCO2.[Cl-]
5. COc1ccc2cc3[n+](cc2c1OCCN(CCn1cncc1[N+](=O)[O-])Cc1cccc(Cl)c1)CCc1cc2c(cc1-3)OCO2.[Cl-]

Result:
["Stable", "Stable", "Stable", "Stable", "Stable"]
